Test system: gastric acid secretion
Test: Inhibitory Effect on Gastric Acid Secretion in Ghosh-Schild Rats
Format: in vivo, rat (male Wistar-KV)
Conditions: 1 mg/kg, 180 minutes after administration
# reported Inhibiting action of gastric acid secretion (rat i.v.), 1 mg/kg; entries follow
Metric Name: Inhibiting action of gastric acid secretion (rat i.v.), 1 mg/kg (%)

{"Compound": "COc1ccnc2c1CCCCC2[S+]([O-])c1nc2cc(F)ccc2[nH]1 (centres unmarked) [Example 78]", "Test Target": "gastric acid secretion", "Unit Text": "%", "Assay Result": 65.4}
{"Compound": "COc1ccc2[nH]c([S+]([O-])C3CCCCc4c(OC)ccnc43)nc2c1 (centres unmarked) [Example 63]", "Test Target": "gastric acid secretion", "Unit Text": "%", "Assay Result": 45.7}
{"Compound": "COc1ccnc2c1CCCCC2[S+]([O-])c1nc2ccccc2[nH]1 (centres unmarked) [Example 77]", "Test Target": "gastric acid secretion", "Unit Text": "%", "Assay Result": 44.7}
{"Compound": "COc1ccc2[nH]c([S+]([O-])Cc3ncc(C)c(OC)c3C)nc2c1 (centres unmarked) [Omeprazole, reference compound]", "Test Target": "gastric acid secretion", "Unit Text": "%", "Assay Result": 36.9}
{"Compound": "COCCOc1ccnc2c1CCCCC2[S+]([O-])c1nc2ccccc2[nH]1 (centres unmarked) [Example 96]", "Test Target": "gastric acid secretion", "Unit Text": "%", "Assay Result": 38.6}
